MEASUREMENT TARGET: HiBit-BRM fusion protein (Homo sapiens)
Construct: expressed in transfected cells
Sequence (P51531 whole entry, the tested form may be a part): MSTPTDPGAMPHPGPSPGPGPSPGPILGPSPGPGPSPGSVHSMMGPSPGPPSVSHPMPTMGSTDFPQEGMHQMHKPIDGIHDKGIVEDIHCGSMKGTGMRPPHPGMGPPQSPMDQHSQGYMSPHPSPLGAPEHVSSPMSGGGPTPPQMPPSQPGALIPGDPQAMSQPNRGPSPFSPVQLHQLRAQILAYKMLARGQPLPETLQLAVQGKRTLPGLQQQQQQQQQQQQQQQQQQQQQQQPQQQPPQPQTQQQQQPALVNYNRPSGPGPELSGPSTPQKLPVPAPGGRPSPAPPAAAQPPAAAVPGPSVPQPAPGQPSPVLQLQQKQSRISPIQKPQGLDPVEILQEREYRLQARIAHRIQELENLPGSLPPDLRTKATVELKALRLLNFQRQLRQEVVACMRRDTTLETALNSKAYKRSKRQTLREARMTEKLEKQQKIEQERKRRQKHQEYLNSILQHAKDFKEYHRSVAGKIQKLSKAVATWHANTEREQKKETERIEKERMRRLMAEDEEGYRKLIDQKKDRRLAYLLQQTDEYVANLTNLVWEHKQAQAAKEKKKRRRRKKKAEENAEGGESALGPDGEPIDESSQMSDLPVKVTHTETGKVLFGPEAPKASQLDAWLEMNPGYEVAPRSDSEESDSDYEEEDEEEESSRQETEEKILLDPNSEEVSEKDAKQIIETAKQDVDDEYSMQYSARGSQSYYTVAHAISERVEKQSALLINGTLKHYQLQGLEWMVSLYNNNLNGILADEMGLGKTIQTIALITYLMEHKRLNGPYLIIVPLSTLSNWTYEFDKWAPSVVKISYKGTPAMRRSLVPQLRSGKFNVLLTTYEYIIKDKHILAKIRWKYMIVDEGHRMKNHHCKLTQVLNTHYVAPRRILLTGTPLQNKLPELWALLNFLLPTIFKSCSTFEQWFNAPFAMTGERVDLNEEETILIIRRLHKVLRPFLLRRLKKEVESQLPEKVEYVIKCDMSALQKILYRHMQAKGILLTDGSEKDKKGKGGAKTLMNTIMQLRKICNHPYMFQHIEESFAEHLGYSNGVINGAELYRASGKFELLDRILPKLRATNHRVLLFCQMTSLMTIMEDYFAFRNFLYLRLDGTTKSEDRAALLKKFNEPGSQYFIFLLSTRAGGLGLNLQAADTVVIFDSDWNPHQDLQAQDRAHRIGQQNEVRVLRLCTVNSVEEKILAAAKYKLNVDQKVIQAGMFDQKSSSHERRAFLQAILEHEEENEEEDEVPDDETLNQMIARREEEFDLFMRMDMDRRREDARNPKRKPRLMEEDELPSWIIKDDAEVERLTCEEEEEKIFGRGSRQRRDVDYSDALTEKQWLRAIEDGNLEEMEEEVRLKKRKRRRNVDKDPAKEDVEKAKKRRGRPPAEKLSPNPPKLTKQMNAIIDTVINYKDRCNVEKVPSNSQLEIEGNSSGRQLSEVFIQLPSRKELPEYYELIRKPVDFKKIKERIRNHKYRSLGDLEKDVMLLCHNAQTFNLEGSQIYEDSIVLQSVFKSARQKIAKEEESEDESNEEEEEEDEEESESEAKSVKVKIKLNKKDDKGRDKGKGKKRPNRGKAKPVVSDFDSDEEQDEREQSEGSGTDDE
METHOD: HiBiT-BRM cell-based degradation assay (Nano-Glo HiBiT Lytic Detection, 24 h)
DETAILS: HeLa cell line expressing HiBiT-BRM, read-out: BRM HiBit Degradation IC50
PARAMETER: DC50

* Cc1ncsc1-c1ccc(CNC(=O)[C@@H]2C[C@@H](O)CN2C(=O)[C@@H](NC(=O)CCCCCCCCC(=O)N2CC(c3cc4cc(-c5ccccc5O)nnc4[nH]3)C2)C(C)(C)C)cc1 [Compound 2] | > 100 nM
* O=C1CCC(N2C(=O)c3cccc(OCCCC(=O)N4CC(c5cc6cc(-c7ccccc7O)nnc6[nH]5)C4)c3C2=O)C(=O)N1 (stereo not drawn) [Compound 8] | > 1000 nM
* Cc1ncsc1-c1ccc([C@H](C)NC(=O)[C@@H]2C[C@@H](O)CN2C(=O)[C@@H](c2cc(OCCN3CC[C@@H](c4c[nH]c5nnc(-c6ccccc6O)cc45)C3)no2)C(C)C)cc1 (racemic) [Compound 262] | > 10 nM

====

Readings of Dmax for the listed compounds
MEASUREMENT TARGET: HiBit-BRG1 fusion protein (Homo sapiens)
Construct: expressed in transfected cells
METHOD: HiBiT-BRG1 cell-based degradation assay (Nano-Glo HiBiT Lytic Detection, 24 h)
DETAILS: HeLa cell line expressing HiBit-BRG1 and LgBit, read-out: BRG1 HiBit Degradation Maximum (%)
PARAMETER: Dmax

* Cc1ncsc1-c1ccc([C@H](C)NC(=O)[C@@H]2C[C@@H](O)CN2C(=O)[C@@H](c2cc(OCCN3C[C@@H]4[C@H](C3)[C@H]4c3cc4cc(-c5cc(F)cc(Cl)c5O)nnc4[nH]3)no2)C(C)C)cc1 (racemic) | < 50%
* Cc1ncsc1-c1ccc([C@H](C)NC(=O)[C@@H]2C[C@@H](O)CN2C(=O)[C@@H](c2cc(OCCN3CC(c4[nH]c5nnc(-c6ccccc6O)cc5c4Br)C3)no2)C(C)C)cc1 (racemic) | < 50%
* Cc1ncsc1-c1ccc([C@H](C)NC(=O)[C@@H]2C[C@@H](O)CN2C(=O)[C@@H](c2cc(N3CCC(CN4CC5(Cc6cc(-c7ccccc7O)nnc6N5)C4)CC3)no2)C(C)C)cc1 (racemic) | > 50%

====

Quick reference: Dmax of the listed items.
MEASUREMENT TARGET: HiBit-BRG1 fusion protein (Homo sapiens, UniProt P51532)
Construct: expressed in transfected cells
Sequence (P51532 whole entry, the tested form may be a part): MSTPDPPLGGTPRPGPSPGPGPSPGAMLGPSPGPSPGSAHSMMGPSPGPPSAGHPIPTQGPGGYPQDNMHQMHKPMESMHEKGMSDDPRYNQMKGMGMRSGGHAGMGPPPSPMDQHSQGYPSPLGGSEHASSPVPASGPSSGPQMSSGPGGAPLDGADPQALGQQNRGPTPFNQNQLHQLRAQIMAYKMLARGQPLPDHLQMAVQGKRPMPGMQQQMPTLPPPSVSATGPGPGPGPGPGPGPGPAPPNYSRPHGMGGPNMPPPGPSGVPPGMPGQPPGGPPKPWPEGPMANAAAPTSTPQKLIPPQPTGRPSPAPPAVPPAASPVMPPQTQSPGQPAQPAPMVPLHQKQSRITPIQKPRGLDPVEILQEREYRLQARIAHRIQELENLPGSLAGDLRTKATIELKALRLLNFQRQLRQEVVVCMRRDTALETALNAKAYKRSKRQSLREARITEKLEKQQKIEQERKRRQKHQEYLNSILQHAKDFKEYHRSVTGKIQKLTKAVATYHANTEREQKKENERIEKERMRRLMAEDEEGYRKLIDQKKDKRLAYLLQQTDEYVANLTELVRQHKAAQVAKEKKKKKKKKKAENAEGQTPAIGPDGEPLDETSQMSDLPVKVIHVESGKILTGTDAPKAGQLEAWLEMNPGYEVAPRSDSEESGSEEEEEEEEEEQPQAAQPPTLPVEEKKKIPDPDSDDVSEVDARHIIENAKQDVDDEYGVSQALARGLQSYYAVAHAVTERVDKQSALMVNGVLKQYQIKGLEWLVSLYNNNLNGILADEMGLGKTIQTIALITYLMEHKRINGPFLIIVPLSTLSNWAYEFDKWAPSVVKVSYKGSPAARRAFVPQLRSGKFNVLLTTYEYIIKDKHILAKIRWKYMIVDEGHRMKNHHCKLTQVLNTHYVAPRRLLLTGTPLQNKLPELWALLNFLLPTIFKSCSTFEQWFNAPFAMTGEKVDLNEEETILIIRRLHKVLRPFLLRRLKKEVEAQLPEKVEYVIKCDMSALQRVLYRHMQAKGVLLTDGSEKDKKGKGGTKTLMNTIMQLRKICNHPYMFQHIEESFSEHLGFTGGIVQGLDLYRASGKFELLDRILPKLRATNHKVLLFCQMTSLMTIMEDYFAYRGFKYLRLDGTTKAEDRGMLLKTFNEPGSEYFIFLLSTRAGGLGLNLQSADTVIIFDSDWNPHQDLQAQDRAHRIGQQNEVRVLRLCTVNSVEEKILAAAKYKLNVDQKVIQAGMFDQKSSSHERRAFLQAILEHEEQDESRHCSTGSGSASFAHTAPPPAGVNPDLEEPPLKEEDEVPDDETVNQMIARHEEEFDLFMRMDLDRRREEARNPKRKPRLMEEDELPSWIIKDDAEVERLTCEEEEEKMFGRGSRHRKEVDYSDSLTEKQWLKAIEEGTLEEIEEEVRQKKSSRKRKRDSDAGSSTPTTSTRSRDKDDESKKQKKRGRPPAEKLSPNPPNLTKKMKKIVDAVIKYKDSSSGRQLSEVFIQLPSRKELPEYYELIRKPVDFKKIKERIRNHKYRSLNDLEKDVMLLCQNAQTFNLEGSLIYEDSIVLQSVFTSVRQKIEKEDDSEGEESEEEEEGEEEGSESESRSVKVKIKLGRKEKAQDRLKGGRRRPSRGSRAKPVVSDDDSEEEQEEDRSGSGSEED
METHOD: HiBiT-BRG1 cell-based degradation assay (Nano-Glo HiBiT Lytic Detection, 24 h)
DETAILS: HeLa cell line expressing HiBit-BRG1 and LgBit, read-out: BRG1 HiBit Degradation Maximum (%)
PARAMETER: Dmax

* Cc1ncsc1-c1ccc(CNC(=O)[C@@H]2C[C@@H](O)CN2C(=O)[C@@H](NC(=O)CN2CC(c3cc4cc(-c5ccccc5O)nnc4[nH]3)C2)C(C)(C)C)cc1 (racemic) | > 75%
* Cc1ncsc1-c1ccc([C@H](C)NC(=O)[C@@H]2C[C@@H](O)CN2C(=O)[C@@H](c2cc(OCCN(C)C34CC(c5cc6cc(-c7ccccc7O)nnc6[nH]5)(C3)C4)no2)C(C)C)cc1 (racemic) | > 75%
* O=C1CCC(N2C(=O)c3cccc(NCCOCCOCCC(=O)N4CC(c5cc6cc(-c7ccccc7O)nnc6[nH]5)C4)c3C2=O)C(=O)N1 (stereo not drawn) | < 50%
